# ASSAY_REMARKS: Cmax in fasted healthy human plasma at 400 mg administered as single dose suspension
# Type: ADME, organism-based
# Design: dose 400 mg

| STRUCTURE_SMILES | Cmax |
| --- | --- |
| CC[C@@H]([C@H](C)O)n1ncn(-c2ccc(N3CCN(c4ccc(OC[C@@H]5CO[C@@](Cn6cncn6)(c6ccc(F)cc6F)C5)cc4)CC3)cc2)c1=O | 151 ng/mL |

---

# ASSAY_REMARKS: Tmax in healthy human at 400 mg administered as single dose suspension coadministered with nutritional supplement
# Assay type: ADME, organism-based
# TEST_PARAMETERS: in vivo
ASSAY_READOUT: Tmax (h)

| STRUCTURE_SMILES | ASSAY_READOUT | MEASUREMENT |
| --- | --- | --- |
| CC[C@@H]([C@H](C)O)n1ncn(-c2ccc(N3CCN(c4ccc(OC[C@@H]5CO[C@@](Cn6cncn6)(c6ccc(F)cc6F)C5)cc4)CC3)cc2)c1=O | Tmax | 5.5 |

These measurements were taken from ChEMBL document CHEMBL1671645.
